tested on: A549/ATCC NSCLC; experiment: NCI-60 one-dose screen, 48 h; conditions: 10 µM unless noted
The panel holds about 83,000 compounds, 20% with a hit somewhere; the sample as a whole holds those more often. Activity calls are given as the source filed them. The calls were made as follows: active = growth percent below 10; inactive = the rest.
In this exercise, the only acceptable responses are True (active), False (inactive)

| compound | label_class |
| --- | --- |
| Clc1ccc(N/N=C(/c2ccccc2)c2ccccn2)nc1 | False |
| CNc1ccc(Nc2ccc(S(=O)(=O)O)cc2)c2c1C(=O)c1ccccc1C2=O | False |
| CCOC1=C(Cl)C(=O)C(OCC)=C(Cl)C1=O | False |

Query: Dear all, I need the recorded test outcome for COc1ccc(Cn2cc3c(c2-c2ccc(OC)cc2)CCc2cnoc2-3)cc1 , thank you.
Response: False

Query: Please share the test call associated with N#CCc1ncc(-c2ccc(C(F)(F)F)cc2)c(NC2CCCCCC2)n1 .
Response: False

Query: For this compound, state the assay outcome: CC#Cc1nc(Nc2cc(C)[nH]n2)c2ccccc2n1
Response: True

Query: Write down the call the test reported for this compound. Item: CCC(C)CC(N)O (configuration not stated)
Response: False

Query: Short answer needed: outcome of this test for COC(=O)/C(Br)=C/c1c[nH]c2ccc(Br)cc12 ?
Response: False

Query: So what was the verdict on O=C(NCCNCCO)c1cc([N+](=O)[O-])cc([N+](=O)[O-])c1O in this test?
Response: False

Query: Which outcome was entered for the compound N#Cc1c(N)nc(Nc2nc3ccccc3[nH]2)nc1-c1ccc(Cl)cc1 in this test?
Response: False

Query: Record lookup: outcome of this test for CCCC(=O)Nc1ccccc1C(=O)O ?
Response: False

Query: Any idea what this test logged for COc1cc(CCNc2cnc3cc(N)cc(N)c3n2)cc(OC)c1 ?
Response: False

Query: Record request — test call for CSCc1ncc(-c2ccc(C(F)(F)F)cc2)c(NC2CCCCCC2)n1
Response: False

Query: Can you look up the reported call for CCCC(=O)NNc1[nH]c(-c2ccc(OC)cc2)cc1C(=O)OCC for me?
Response: False

Query: What call does the record list for O=C1C(=O)c2ccccc2C(O)=C1CCCc1ccc(Oc2ccccc2)cc1 ?
Response: False

Query: GET /call?item= O=C(O)/C(Br)=C/c1c[nH]c2ccc(Br)cc12 returns the recorded outcome of this test.
Response: False

Query: Hey, what did the test say about COc1ccc2oc(=O)cc(CN3C(=O)S/C(=C\c4ccc(Cl)cc4)C3=O)c2c1 ?
Response: False

Query: For this compound, state the assay outcome: CCn1cc(C(=O)O)c(=O)c2cc(F)c(N3CCN(S(=O)(=O)c4ccc(Cl)cc4)CC3)cc21
Response: False

Query: Write down the call the test reported for this compound. Item: CC1(C)NC(=S)NC1=O
Response: False

====

Test system: LOX IMVI melanoma
Test: NCI-60 one-dose screen, 48 h (100 = growth as untreated, 0 = no growth, -100 = all killed)
Settings: 10 µM unless noted
Protocol: Growth inhibition of the LOX IMVI human tumor cell line is measured as a screen for anti-cancer activity. Cells are grown in 96 well plates and exposed to the test compound for 48 hours. Compounds are tested at a single concentration, which is 10^-5 M for most compounds. The reported endpoint is percent growth (GI% or GIPRCNT), where numbers from 0 - 100% represent growth inhibition, and numbers from -100% - 0 represent cell death. For example, a value of 40 represents 60% growth inhibition. […]
This is part of a sample that, as a whole, favours compounds with a hit. Of some 83,000 tested, about 20% had one in any assay.
reported_metric: growth (%)
Kindly answer with a numeric value in %, unit omitted.

Examples with answers:
| smi | growth (%) |
| --- | --- |
| CCOC(=O)NNc1[nH]c(-c2ccc(OC)cc2)cc1C#N | 91.6 |
| CC[n+]1c(C)ccc2cc(C)ccc21 | 90.8 |

Here is the next item to consider.
Query: If you can, please state the reported growth value of NC(N)=Nc1ccc(/C=C2\C=Cc3ccccc32)cc1 .
Response: 40

====

Test system: MOLT-4 leukemia
Assay: NCI-60 one-dose screen, 48 h
Conditions: 10 µM unless noted
Experimental: Growth inhibition of the MOLT-4 human tumor cell line is measured as a screen for anti-cancer activity. Cells are grown in 96 well plates and exposed to the test compound for 48 hours. Compounds are tested at a single concentration, which is 10^-5 M for most compounds. The reported endpoint is percent growth (GI% or GIPRCNT), where numbers from 0 - 100% represent growth inhibition, and numbers from -100% - 0 represent cell death. For example, a value of 40 represents 60% growth inhibition. […]
Compounds without any hit were thinned out: in the full panel of roughly 83,000, 20% have a hit. Active and inactive are the calls of the source. Rule for the calls: active = growth percent below 10; inactive = the rest.
Result category, one only: active, inactive

Use the examples below as a reference point.
| compound | label_class |
| --- | --- |
| O=C(N/N=C/c1coc2ccccc2c1=O)c1cc2oc(-c3ccccc3)cc2[nH]1 | inactive |
| CCOc1nc(-c2ccccc2)cc2c(O)c(C(=O)N/N=C/c3ccccc3O)[nH]c(=O)c12 | inactive |

Query: Write down the call the test reported for this compound. Item: COc1ccc(Cn2cc3c(c2-c2ccccc2)CCc2cnoc2-3)cc1OC
Response: inactive

Query: Answer briefly: the call reported for CCC(C)(C)c1ccc(OCCCCCCN2CCN(c3ccc(C)c(Cl)c3)CC2)cc1 in this assay.
Response: inactive

Query: Test call for this compound, please: COC(=O)c1ccc(C(=Nc2ccc(N(C)C(=O)CN3CCN(C)CC3)cc2)c2c(O)[nH]c3ccc(C(=O)OC)cc23)cc1
Response: inactive

Query: Can you look up the reported call for COC(=O)CC(=O)C(=O)OC for me?
Response: inactive

Query: Hey, what did the test say about COC(=O)c1cc(O)c2cc3c(cc2c1-c1cc(OC)c(OC)c(OC)c1)OCO3 ?
Response: inactive

====

test system: HT29 colon; assay: NCI-60 one-dose screen, 48 h (100 = growth as untreated, 0 = no growth, -100 = all killed); settings: 10 µM unless noted
The panel holds about 83,000 compounds, 20% with a hit somewhere; the sample as a whole holds those more often.
reported_metric: growth (%)
# unit: % | format: bare number

Worked examples follow.
| molecule | growth (%) |
| --- | --- |
| CCCCCCCCCC[N+](C)(C)N | 85.4 |
| CCOC(=O)C1C(=O)C(=O)N(C(C)C)C1C(=O)OCC (stereo unspecified) | 98.2 |
| CCOC1=C(Cl)C(=O)C(OCC)=C(Cl)C1=O | 101 |
| COc1ccc(OC)c(Cn2cc3c(c2-c2ccccc2)CCc2cnoc2-3)c1 | 30.4 |
| O=C1NCCN1/N=C/c1c(Cl)nc2n1CCS2 | 108 |

Okay, next one:
Query: Item OCC(O)C(O)CC1SCCS1 (stereo unspecified) with HT29 colon - growth?
Response: 101

====

tested on: IGROV1 ovarian; assay: NCI-60 one-dose screen, 48 h; details: 10 µM unless noted
This is part of a sample that, as a whole, favours compounds with a hit. Of some 83,000 tested, about 20% had one in any assay. The source made the active and inactive calls. How the source made its calls: active means growth percent below 10; inactive means the rest.
In this exercise, the only acceptable responses are TRUE = active, FALSE = inactive

Previously resolved entries follow.
| molecule | label_class |
| --- | --- |
| COc1cc2c(c3c1c(=O)c1cccc(F)c1n3C)C=CC(C)(C)O2 | FALSE |
| Cc1ccc(C(=O)NN)cc1 | FALSE |
| CC[C@H](Nc1ncnc2nc[nH]c12)c1nc2cccc(NCc3ccc(C(=O)NO)o3)c2c(=O)n1-c1ccccc1 | FALSE |
| CCCCCCCCCCC(C[N+](C)(C)C/C=C/c1ccccc1)C(O)c1ccccc1 (stereo not given) | TRUE |
| O=C1C(=O)c2ccccc2C(O)=C1CCCc1ccc(C2CCCC2)cc1 | FALSE |

Query: Hey, what did the test say about Cc1ccccc1-n1c(C)nc2cc(NC(=O)c3ccc(Cl)cc3)ccc2c1=O ?
Response: FALSE

Query: Hello, I am checking results. What call was entered for O=C(N/N=C\c1ccc(-c2ccc(Br)cc2)o1)c1cc2oc(-c3cccc(C(F)(F)F)c3)cc2[nH]1 ?
Response: FALSE

Query: GET /call?item= CC[C@H](Nc1ncnc2nc[nH]c12)c1nc2cccc(NCc3ccc(C(=O)NO)nc3)c2c(=O)n1-c1ccccc1 returns the recorded outcome of this test.
Response: FALSE

Query: Please let me know the test result on file for CCCC(=O)NNc1[nH]c(-c2ccc(OC)cc2)cc1C(=O)OCC .
Response: FALSE

Query: Name the outcome recorded for CC(=O)Nc1nc(C)c(C(=O)N/N=C/c2cccs2)s1 in the assay.
Response: TRUE

Query: Entry CC(=O)OCC(=O)[C@@]1(O)[C@H](C)C[C@H]2[C@@H]3C=C(C)C4=Cc5c(cnn5-c5ccc(F)cc5)C[C@]4(C)[C@H]3[C@@H](O)C[C@@]21C : call = ?
Response: FALSE

Query: Hey, what did the test say about O=C(N/N=C\c1ccc(Cl)cc1)C(=O)N/N=C\c1ccc(Cl)cc1 ?
Response: FALSE

Query: Write down the call the test reported for this molecule. Item: COC(=O)Nc1nc2ccc(C(=O)c3ccccc3N(C)C3COC3)cc2[nH]1
Response: FALSE

Query: Per the assay record, what outcome was assigned to C/C=C(/C)C(=O)OC1C=C(CO)C(=O)C(OC(=O)C(C)(O)C(C)Cl)C1C(C)C (stereo not given) ?
Response: TRUE

Query: Please state the recorded outcome for this molecule: COc1ccc(Cn2cc3c(c2-c2ccccc2)CCc2cnoc2-3)cc1N
Response: TRUE

Query: In this assay, the call recorded for C[C@@H](c1ccc2c(c1)[nH]c1ccc(Cl)cc12)c1nc2ccc(Cl)cc2[nH]1 was what?
Response: FALSE

Query: # fetch the recorded call for Cc1[nH]n(C(=S)Nc2nc3cc(Cl)c(F)cc3s2)c(=O)c1N=Nc1ccc(F)c(Cl)c1 here
Response: FALSE

Query: Fill in: this test's call for [2H]c1nc(=Nc2cc(NC(=O)C=C)c(N(C)CCN(C)C)cc2OC)[nH]c(-c2cn(C([2H])([2H])[2H])c3ccccc23)c1[2H] is ___
Response: FALSE

Query: For Oc1ccc(CN(Cc2ccc(C(F)(F)F)cc2)Cc2ccc(O)c3ncccc23)c2cccnc12 , which call appears in the assay record?
Response: FALSE

Query: Name the outcome recorded for CCCCN(CCCC)CC(O)CN(CC)CC (stereo not given) in the assay.
Response: FALSE
